Target: T1, Macaca fascicularis IL2Rγ extracellular domain expressed with a C-terminal myc-myc-hexahistidine tag (Macaca fascicularis)
T1 construct: also called mfIL-2Rg-MMH; mfIL-2RG-MMH
T1 chain: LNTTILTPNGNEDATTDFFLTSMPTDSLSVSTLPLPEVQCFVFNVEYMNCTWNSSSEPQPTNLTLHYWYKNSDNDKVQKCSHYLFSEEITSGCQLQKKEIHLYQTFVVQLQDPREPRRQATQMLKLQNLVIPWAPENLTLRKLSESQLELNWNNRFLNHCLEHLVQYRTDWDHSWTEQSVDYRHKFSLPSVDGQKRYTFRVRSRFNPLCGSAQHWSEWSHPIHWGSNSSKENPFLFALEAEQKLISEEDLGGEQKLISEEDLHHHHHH
Assay: SPR, captured mAb, 25C, dissociation pH 7.4
Readout label: koff
Write the numeric value and append its unit.

q: Query (binder): H4H12899P (antibody, human IgG4 S228P, kappa, V domains shown, anti-IL2Rgamma mAb expressed with human IgG4 Fc) VH: QVQLVESGGDLVKPGGSLRLSCATSGFTFSDFYMTWIRQAPGKGLEWISYISNSGSIVKYADSVKGRFTISRDNAKNSLYLQMNSLRAEDTAIYYCARFYGDRWGQGTLVTVSS VL: DIQLTQSPSFLSASVGDRVTITCWASQGISTFLAWYQQKPGKAPKLLIYAASTLQSGVPSRFSGSGSGTDFTLTISSLQPEDFATYHCQQLNNYPWTFGQGTKVEIKR ; field requested: koff
a: 0.000167 s⁻¹

q: # get_value(readout='koff', item= H4H12858P (antibody, human IgG4 S228P, kappa, V domains shown, anti-IL2Rgamma mAb expressed with human IgG4 Fc; also called REGN9433) VH: EVQLVESGGDLVQPGGSLRLSCTASGFIFRNYAMNWVRQAPGKGLEWLSGILGSNDNTYYVDSVKGRFTISRDNSRNTLYLQMNSLRAEDSAVYYCAKGDAGGFDYWGQGTLVTVSS VL: DVVMTQSPLSLPVILGQPASISCRSSQSLVSSDGNTYLNWFQQRPGQSPRRLIYKVSNRDSGVPDRFSGSGSGTDFTLKISRVEAEDVGAYYCMQGSYWPPTFGQGTKLEIKR )
a: 0.000171 s⁻¹
